Field: IC50. Provide a value for each of the compounds that follow.
biological target: Beta-glucuronidase (Escherichia coli (strain K12)); experiment: Inhibition of Escherichia coli beta-glucuronidase assessed as reduction of p-nitrophenol release using p-nitrophenyl-glycoside as substrate by spectrophotometric analysis
Sequence (P05804 whole entry): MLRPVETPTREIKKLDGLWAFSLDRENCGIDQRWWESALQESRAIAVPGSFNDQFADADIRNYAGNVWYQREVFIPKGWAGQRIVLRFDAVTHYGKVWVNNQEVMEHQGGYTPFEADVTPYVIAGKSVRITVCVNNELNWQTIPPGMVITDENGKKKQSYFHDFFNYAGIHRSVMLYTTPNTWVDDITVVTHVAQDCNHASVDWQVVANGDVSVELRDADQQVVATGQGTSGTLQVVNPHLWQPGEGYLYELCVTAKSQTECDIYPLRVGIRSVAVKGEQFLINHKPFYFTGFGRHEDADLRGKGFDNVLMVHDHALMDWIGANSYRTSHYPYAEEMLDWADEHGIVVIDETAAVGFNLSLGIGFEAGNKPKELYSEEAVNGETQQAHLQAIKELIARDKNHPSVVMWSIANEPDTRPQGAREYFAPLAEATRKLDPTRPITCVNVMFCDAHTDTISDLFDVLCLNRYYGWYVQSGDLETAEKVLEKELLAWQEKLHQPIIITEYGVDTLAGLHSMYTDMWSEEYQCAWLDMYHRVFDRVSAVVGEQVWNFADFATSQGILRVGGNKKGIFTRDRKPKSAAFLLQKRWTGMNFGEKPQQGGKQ
Provide the measurement as a number trailed by its unit.

Ask: Any idea what IC50 came out for Cl.OC[C@H]1N[C@H](CCCCCCCc2ccc(Cl)cc2)[C@@H](O)[C@@H]1O on Beta-glucuronidase (Escherichia coli (strain K12))?
Reply: 22 µM

Ask: Field entry: Cl.OC[C@H]1N[C@H](CCCCCCCc2cccc(F)c2)[C@@H](O)[C@@H]1O
Reply: 19.4 µM

Ask: How about OC[C@H]1N[C@H](CCCCCCCc2ccc(F)c(F)c2F)[C@@H](O)[C@@H]1O ?
Reply: 14 µM

---

biological target: Alpha-glucosidase (Saccharomyces cerevisiae S288c) (UniProt P53341+P38158+P07265); experiment: Inhibition of yeast alpha-glucosidase assessed as reduction of p-nitrophenol release using p-nitrophenyl glycoside as substrate at 1000 uM by spectrophotometric analysis relative to control; assay type: protein assay
Output MET for inhibition not less than 40%; output NOT MET otherwise.

Ask: Exam item: decide whether the reported inhibition for CC(C)(C)c1ccc(CCCCCC[C@@H](O)[C@@H]2N[C@@H](CO)[C@H](O)[C@H]2O)cc1 is at least 40%.
Reply: NOT MET

Ask: And then CC(C)(C)c1ccc(CCCCCC[C@H](O)[C@@H]2N[C@@H](CO)[C@H](O)[C@H]2O)cc1 , what is it?
Reply: NOT MET

Ask: Okay, and OC[C@H]1N[C@H](CCCCCCCc2ccc(F)c(F)c2F)[C@@H](O)[C@@H]1O ?
Reply: MET

Ask: Proceed to Cc1ccc(CCCCCC[C@@H](O)[C@@H]2N[C@@H](CO)[C@H](O)[C@H]2O)cc1
Reply: NOT MET

Ask: Please give the result for OC[C@H]1N[C@H]([C@@H](O)CCCCCCc2ccccc2)[C@@H](O)[C@@H]1O too.
Reply: NOT MET

Ask: Again, but for OC[C@H]1N[C@H]([C@H](O)CCCCCCc2ccc(Cl)cc2)[C@@H](O)[C@@H]1O
Reply: MET

Ask: Now the compound Cc1ccc(CCCCCC[C@H](O)[C@@H]2N[C@@H](CO)[C@H](O)[C@H]2O)cc1
Reply: NOT MET

---

target: Alpha-mannosidase (Canavalia ensiformis) (UniProt C0HJB3); experiment: Inhibition of jack bean alpha-mannosidase assessed as reduction of p-nitrophenol release using p-nitrophenyl glycoside as substrate at 1000 uM by spectrophotometric analysis relative to control
Sequence (C0HJB3 1-562 limits assumed): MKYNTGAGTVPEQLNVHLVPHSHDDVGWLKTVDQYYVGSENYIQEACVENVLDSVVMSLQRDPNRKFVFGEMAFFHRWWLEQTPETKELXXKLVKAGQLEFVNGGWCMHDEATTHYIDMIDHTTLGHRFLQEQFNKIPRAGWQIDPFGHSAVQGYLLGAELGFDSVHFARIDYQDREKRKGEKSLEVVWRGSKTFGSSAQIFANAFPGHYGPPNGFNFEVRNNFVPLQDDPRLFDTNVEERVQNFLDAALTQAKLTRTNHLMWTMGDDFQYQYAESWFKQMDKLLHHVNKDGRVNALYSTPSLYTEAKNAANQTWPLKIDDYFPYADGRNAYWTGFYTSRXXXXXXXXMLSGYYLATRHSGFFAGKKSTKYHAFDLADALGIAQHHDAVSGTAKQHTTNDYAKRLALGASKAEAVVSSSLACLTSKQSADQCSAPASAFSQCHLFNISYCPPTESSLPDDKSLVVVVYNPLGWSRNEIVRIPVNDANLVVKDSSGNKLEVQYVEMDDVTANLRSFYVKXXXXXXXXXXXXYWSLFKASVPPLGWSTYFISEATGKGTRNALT
Sequence (C0HJB3 563-981 limits assumed): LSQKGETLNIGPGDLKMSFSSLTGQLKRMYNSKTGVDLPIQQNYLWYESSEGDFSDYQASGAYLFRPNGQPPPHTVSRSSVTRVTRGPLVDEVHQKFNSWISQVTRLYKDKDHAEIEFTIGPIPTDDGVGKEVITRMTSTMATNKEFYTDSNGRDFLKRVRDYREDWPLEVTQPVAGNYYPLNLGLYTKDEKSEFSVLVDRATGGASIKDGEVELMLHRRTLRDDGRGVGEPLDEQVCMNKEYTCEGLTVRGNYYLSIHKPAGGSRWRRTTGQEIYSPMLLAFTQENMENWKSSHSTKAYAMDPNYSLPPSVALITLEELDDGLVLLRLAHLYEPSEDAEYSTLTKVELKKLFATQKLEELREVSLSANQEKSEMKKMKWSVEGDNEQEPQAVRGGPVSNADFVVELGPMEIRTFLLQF
measuredEndpoint: inhibition (%)
State the answer as a number, implicitly in %.

Ask: May I ask what inhibition has been recorded for Cl.OC[C@H]1N[C@H]([C@H](O)CCCCCCc2ccc(F)c(F)c2)[C@@H](O)[C@@H]1O ?
Reply: 16.6

Ask: Next compound up: OC[C@@H]1N[C@@H]([C@@H](O)CCCCCCc2ccc(F)cc2)[C@H](O)[C@H]1O
Reply: 0

Ask: Next compound: OC[C@H]1N[C@H](CCCCCCCc2ccccc2)[C@@H](O)[C@@H]1O
Reply: 8.4

Ask: Same question for O=C1CCCC=C1CCCCCCC[C@H]1N[C@H](CO)[C@@H](O)[C@@H]1O please.
Reply: 15.1

Ask: Query OC[C@H]1N[C@H]([C@@H](O)CCCCCCc2ccc(F)c(F)c2)[C@@H](O)[C@@H]1O next
Reply: 0
